The measurements presented in this section are drawn from patent US5002948A.

Please respond with reported IC50 for every item in the list.
Target: serotonin 5-HT1A receptors (Rattus norvegicus, UniProt P19327)
Sequence (P19327 1-422): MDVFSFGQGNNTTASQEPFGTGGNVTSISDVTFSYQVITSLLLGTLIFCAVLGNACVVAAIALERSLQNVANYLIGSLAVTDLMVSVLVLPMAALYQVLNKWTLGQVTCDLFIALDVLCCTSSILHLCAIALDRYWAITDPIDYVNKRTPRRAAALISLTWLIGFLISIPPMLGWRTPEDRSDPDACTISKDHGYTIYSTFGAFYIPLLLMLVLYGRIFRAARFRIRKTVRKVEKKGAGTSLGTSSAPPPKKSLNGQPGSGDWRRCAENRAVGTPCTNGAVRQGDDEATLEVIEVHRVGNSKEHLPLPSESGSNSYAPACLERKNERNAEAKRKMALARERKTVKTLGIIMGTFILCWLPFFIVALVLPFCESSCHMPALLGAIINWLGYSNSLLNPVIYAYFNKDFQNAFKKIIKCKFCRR

Answered examples (5):
>  <compound>
COc1ccccc1N1CCN(CCCCC2CNc3ccccc32)CC1 (single isomer, unassigned; (+)) [Compound 7a]

>  <IC50>
13 nM

$$$$
>  <compound>
COc1ccccc1N1CCN(CCCCC2CN(C)c3ccccc32)CC1 (centres unmarked)

>  <IC50>
43 nM

$$$$
>  <compound>
c1ccc2c(c1)NCC2CCCCN1CCN(c2cccc3c2OCCO3)CC1 (centres unmarked)

>  <IC50>
3.3 nM

$$$$
>  <compound>
COc1ccccc1N1CCN(CCCCc2c[nH]c3ccc(F)cc23)CC1

>  <IC50>
11 nM

$$$$
>  <compound>
COc1ccccc1N1CCN(CCCCC2CNc3ccccc32)CC1 (single isomer, unassigned; (-)) [Compound 7b]

>  <IC50>
8.6 nM

$$$$

The following compounds each have a reported value; give each one's IC50.
1. Oc1ccccc1N1CCN(CCCCC2CNc3ccccc32)CC1 (centres unmarked)
2. O=C1c2ccccc2S(=O)(=O)N1CCCCN1CCN(c2ncccn2)CC1 [ipsapirone, reference compound]
3. COc1ccccc1N1CCN(CCCCC2CNc3cc(Cl)ccc32)CC1 (centres unmarked)

Result:
1: 17 nM; 2: 17 nM; 3: 5.8 nM
